Assay: Acute toxicity (DL50) in mus musculus
Conditions: in vivo, ip, read-out: DL50 by i.p. administration
measurement-label: LD50 (mg/kg)
The reply should contain only the number, in mg/kg.

Record summary for CC(C(=O)O)C1=CCCc2ccccc21 (stereo not shown) : reported LD50 = 1380

----------
Test: Acute toxicity (DL50) in the rat
Settings: in vivo, oral, read-out: DL50 by oral administration
measurement-label: LD50 (mg/kg)
The reply should contain only the number, in mg/kg.

Record summary for CC(C(=O)O)C1=CCCc2ccccc21 (stereo not shown) [1.620] : reported LD50 = 1720

----------
Experiment: Acute toxicity (DL50) in the rat
Settings: in vivo, ip, read-out: DL50 by i.p. administration
measurement-label: LD50 (mg/kg)
The reply should contain only the number, in mg/kg.

Record summary for CC(C(=O)O)C1=CCCc2ccccc21 (stereo not shown) : reported LD50 = 1340

----------
Assay: Acute toxicity (DL50) in mus musculus
Conditions: in vivo, oral, read-out: DL50 by oral administration
measurement-label: LD50 (mg/kg)
The reply should contain only the number, in mg/kg.

Record summary for CC(C(=O)O)C1=CCCc2ccccc21 (stereo not shown) [1.620] : reported LD50 = 1660
